assay: Intrinsic clearance in mouse hepatocytes; assay type: ADME, cell-based, Hepatocyte; settings: read-out: CLH
# CLint scaled listing for each entry below
ASSAY METRIC: CLint scaled (mL/min/kg)

In [3]: df
Out[3]:
                           substance_smiles  reported_value
0  COc1cccc(-c2c(-c3ccc4c(=O)[nH]nc(CN)c4c3)cnn2C)c1C#N             137
1  Cn1ncc(-c2ccc3c(=O)[nH]nc(CN)c3c2)c1-c1ccccc1             123
2  Cn1ncc(-c2ccc3c(=O)[nH]nc(CN)c3c2)c1-c1cc2ccccc2cc1C#N             212
3  Cc1cccc(-c2c(-c3ccc4c(=O)[nH]nc(CN)c4c3)cnn2C)c1C#N             296
4  Cn1ncc(-c2ccc3c(=O)[nH]nc(CN)c3c2)c1-c1c(F)ccc(OC2CC2)c1C#N             143
5  Cn1ncc(-c2ccc3c(=O)[nH]nc(CN)c3c2)c1-c1c(Cl)ccc(OC2CC2)c1C#N             332
6  Cc1cc(OC2CC2)c(C#N)c(-c2c(-c3ccc4c(=O)[nH]nc(CN)c4c3)cnn2C)c1             175
